# systemTested: tissue transglutaminase (TG2), C-terminal His-tag TG2 (Homo sapiens, UniProt P21980)
# Construct: host or cells: Novagen Rosetta 2 (DE3) E. coli
# Sequence (P21980 whole entry): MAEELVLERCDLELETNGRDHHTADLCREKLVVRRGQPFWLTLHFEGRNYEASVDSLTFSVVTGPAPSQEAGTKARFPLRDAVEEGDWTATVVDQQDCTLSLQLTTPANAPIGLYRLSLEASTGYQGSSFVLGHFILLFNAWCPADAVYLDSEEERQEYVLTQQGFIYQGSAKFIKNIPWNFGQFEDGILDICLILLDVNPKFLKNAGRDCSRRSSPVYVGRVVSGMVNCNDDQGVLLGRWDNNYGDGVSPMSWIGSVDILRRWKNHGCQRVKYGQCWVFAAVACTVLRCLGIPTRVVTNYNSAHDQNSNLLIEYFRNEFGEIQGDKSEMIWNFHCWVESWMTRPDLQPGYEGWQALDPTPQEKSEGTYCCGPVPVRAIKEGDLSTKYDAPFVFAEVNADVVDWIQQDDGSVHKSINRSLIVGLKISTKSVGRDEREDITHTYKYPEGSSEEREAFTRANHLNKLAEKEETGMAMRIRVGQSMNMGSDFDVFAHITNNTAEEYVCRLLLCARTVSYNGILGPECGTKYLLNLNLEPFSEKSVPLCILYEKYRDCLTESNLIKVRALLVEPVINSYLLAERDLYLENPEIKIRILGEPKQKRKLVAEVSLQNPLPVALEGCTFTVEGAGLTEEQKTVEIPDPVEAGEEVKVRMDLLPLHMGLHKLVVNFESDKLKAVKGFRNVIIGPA
# experimentSummary: continuous AL5 hydrolysis assay of irreversible TG2 inhibition (kobs vs [I]/α)
# Type: biochemical
# testContext: supplement, kinetics data and fitting
measuredAttribute: kinact/KI

molecule	value
C=CC(=O)NCC(=O)N1CCN(C(=O)c2ccc(-c3cccc(C)c3)cc2)CC1 [Compound 21h]	22.8 ± 11.7 × 103 M-1min-1
C=CC(=O)NCC(=O)N1CCN(C(=O)c2ccccc2)CC1	61.1 ± 20.0 × 103 M-1min-1
C=CC(=O)NCC(=O)N1CCN(C(=O)C2CCCC2)CC1	40.0 ± 5.3 × 103 M-1min-1

Kindly consider the entry below.
Q. Consider the molecule shown here: `C=CC(=O)NCC(=O)N1CCN(C(=O)c2cccc(-c3ccccc3)c2)CC1` What is its recorded kinact/KI?
A. 133.9 ± 38.4 × 103 M-1min-1
